Please respond with reported growth at 10 µM for every item in the list.
- System: SF-539
- Protocol notes: Cytotoxicity against human SF539 cells assessed as cell growth at 10 uM after 48 hrs by SRB assay relative to untreated control
- Format: functional
- Cond: SF-539, 48 h, read-out: Activity

Study these solved cases before continuing.
Given smiles: C[C@H]1NC(c2ccc(Br)cc2)=Nc2nc3ccccn3c2C1=O
Result: 95.5%
--
Given smiles: Cc1ccc(C2=Nc3nc4ccccn4c3C(=O)[C@H](Cc3ccccc3)N2)cc1
Result: 98.8%
--
Given smiles: COc1ccc(C2=Nc3nc4ccccn4c3C(=O)[C@H](C)N2)cc1
Result: 97.3%
--
Given smiles: Cc1ccccc1C1=Nc2nc3ccccn3c2C(=O)[C@H](Cc2ccccc2)N1
Result: 99.4%
--
Given smiles: C[C@@H]1NC(c2ccc(N(C)C)cc2)=Nc2nc3ccccn3c2C1=O
Result: 92.7%

Go through the list and state growth at 10 µM for each entry.
1. Cc1ccc(C2=Nc3nc4ccccn4c3C(=O)[C@@H]3CCCN23)cc1
2. C[C@@H]1NC(c2ccccc2)=Nc2nc3ccccn3c2C1=O
3. Cc1ccc(C2=Nc3nc4ccccn4c3C(=O)[C@H](C)N2)cc1
4. O=C1c2c(nc3ccccn23)N=C(c2ccccc2)N2CCC[C@@H]12
5. COc1ccc(C2=Nc3nc4ccccn4c3C(=O)[C@H](Cc3ccccc3)N2)cc1
6. O=C1c2c(nc3ccccn23)NC(=O)N2CCC[C@@H]12

## Result
1: 92.5%; 2: 108%; 3: 90%; 4: 89.8%; 5: 97.2%; 6: 91.7%

Your task in this section: give growth at 10 µM for each listed record.
1. C[C@@H]1NC(c2ccc(Br)cc2)=Nc2nc3ccccn3c2C1=O
2. O=C1Nc2nc3ccccn3c2C(=O)[C@H](Cc2ccccc2)N1

## Result
["74.7%", "95.9%"]
